EXPERIMENTAL TARGET: CLK2 kinase (Homo sapiens, UniProt P49760)
Sequence (P49760 whole entry): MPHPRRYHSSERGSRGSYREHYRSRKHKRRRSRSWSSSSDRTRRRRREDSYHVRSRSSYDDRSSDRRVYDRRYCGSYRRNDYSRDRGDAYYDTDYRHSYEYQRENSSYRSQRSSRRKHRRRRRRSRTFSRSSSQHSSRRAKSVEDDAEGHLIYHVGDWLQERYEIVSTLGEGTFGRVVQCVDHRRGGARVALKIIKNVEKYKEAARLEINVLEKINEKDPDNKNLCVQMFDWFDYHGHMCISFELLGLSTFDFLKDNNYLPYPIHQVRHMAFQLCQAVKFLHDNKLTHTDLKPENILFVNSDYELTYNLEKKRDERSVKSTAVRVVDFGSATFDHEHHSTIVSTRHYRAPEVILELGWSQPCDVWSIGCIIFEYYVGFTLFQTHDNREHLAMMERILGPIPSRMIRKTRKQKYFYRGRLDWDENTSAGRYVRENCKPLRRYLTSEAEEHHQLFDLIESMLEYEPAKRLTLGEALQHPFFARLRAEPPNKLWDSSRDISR
TEST PROTOCOL: CLK2 kinase activity assay (Z-lyte FRET);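 further: FRET read-out as coumarin to fluorescein emission ratio, unphosphorylated peptide as 0% and phosphorylated peptide as 100% controls, duplicate reactions, non-linear regression fit of dose-response curves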
CONDITION PARAMETERS: Z-lyte Ser/Thr 6 peptide, 60 μM ATP, 1 h at room temperature
OBSERVABLE: EC50 (nM)

1) COc1cccc(-c2cncc3[nH]c(-c4n[nH]c5ccc(-c6cn[nH]c6)nc45)nc23)c1 [compound 633] :: 3
2) Cn1cc(-c2ccc3cnc(NC(=O)c4ccc5c(c4)CNCC5)cc3c2)cn1 [compound 557] :: 2
3) CNc1nc(NCc2ncccn2)c2c(-c3ccc4ncccc4c3)c[nH]c2n1 [compound 624] :: 10
4) FC1(F)CCN(Cc2cncc(-c3cnc4[nH]nc(-c5cc6c(-c7ccncc7)cncc6[nH]5)c4c3)c2)C1 [compound 402] :: 5
5) Fc1cccc(-c2cncc3[nH]c(-c4n[nH]c5ccc(-c6cnccn6)nc45)nc23)c1 [compound 625] :: 5
6) Cn1ncc(-c2ccc3cnc(NC(=O)c4cccc(CN5CCCC5)c4)cc3c2)c1CN1CCCCC1 [compound 572] :: 2
